This listing pairs binders with measured MFI.
target: T1, human TMEM106B (human, UniProt Q9NUM4 2-274); experiment: FACS HEK+huTMEM, 10 ug/ml;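 also: purified mouse IgG antibodies at 10 µg/ml bound to HEK293 cells transiently expressing human TMEM106B, measured by flow cytometry as median fluorescence intensity of propidium iodide negative live cells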
T1 construct: Full-length, on transiently transfected HEK293 cells, or natively expressed on HeLa, U251 and A549 cells; also called huTMEM106B; huTMEM
measured-endpoint: MFI

anti-TMEM106B antibody TM-52 (antibody, V domains shown, mouse IgG from hybridoma) VH: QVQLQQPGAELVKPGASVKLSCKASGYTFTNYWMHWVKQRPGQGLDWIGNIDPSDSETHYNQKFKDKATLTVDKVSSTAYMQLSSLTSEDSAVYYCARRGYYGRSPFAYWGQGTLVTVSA VL: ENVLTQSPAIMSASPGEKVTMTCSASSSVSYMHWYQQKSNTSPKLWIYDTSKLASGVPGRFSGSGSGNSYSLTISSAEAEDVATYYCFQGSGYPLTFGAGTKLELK :: 7020
anti-TMEM106B antibody TM-3 (antibody, V domains shown) VH: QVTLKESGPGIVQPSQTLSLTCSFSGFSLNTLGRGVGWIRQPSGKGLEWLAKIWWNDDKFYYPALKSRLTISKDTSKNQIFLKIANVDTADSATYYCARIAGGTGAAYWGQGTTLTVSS VL: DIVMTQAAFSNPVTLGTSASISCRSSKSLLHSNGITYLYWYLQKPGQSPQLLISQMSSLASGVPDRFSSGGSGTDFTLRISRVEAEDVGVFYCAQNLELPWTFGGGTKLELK :: 82300
anti-TMEM106B antibody TM-7 (antibody, V domains shown) VH: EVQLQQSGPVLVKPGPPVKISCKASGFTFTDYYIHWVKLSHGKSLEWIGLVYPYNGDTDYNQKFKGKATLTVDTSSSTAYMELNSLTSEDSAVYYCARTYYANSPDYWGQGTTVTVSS VL: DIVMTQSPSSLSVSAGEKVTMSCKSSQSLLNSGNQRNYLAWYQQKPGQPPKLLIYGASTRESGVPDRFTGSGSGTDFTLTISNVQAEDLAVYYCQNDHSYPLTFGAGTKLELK :: 40800
